# subject_of_test: HuR RRM3 (human, UniProt Q15717 241-326)
# Sequence (Q15717 241-326): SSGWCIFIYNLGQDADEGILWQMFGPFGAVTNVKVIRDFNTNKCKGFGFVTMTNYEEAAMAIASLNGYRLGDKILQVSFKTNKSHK
# assay_name: ITC
experimental_readout: Kd (nM)
Dear colleague, please return just the value in nM, with no unit written.

Requested field: Kd. Item: AUUUUUAUUUU (ssRNA) [c-fos ARE 11-mer]
650

Source: paper PMC6386705
